- system name: T1, cMetECDHis (human, UniProt P08581 25-932, limits assumed, biotinylated in the cross-block ELISA of Example 17)
- T1 construct: Expressed in HEK-293F cells; also called soluble cMetECDHis; biotinylated cMetECDHis
- test details: cross-block ELISA; competitor 181
- Protocol: First, the optimal coating concentrations of the tested anti-c-Met antibodies and the optimal cMetECDHis concentration were determined. Therefore, ELISA wells were coated overnight at 4° C. with anti-c-Met HuMabs serially diluted in PBS (8 μg/mL in 2-fold dilutions). […] ELISA wells were coated with anti-c-Met antibody at a sub-optimal dose as described above. […] Residual binding was expressed as a percentage relative to the binding observed in the absence of competitor antibody.
assay metric: residual binding, % of no competitor (%)
# value in %; strip the unit string

Req: Report residual binding, % of no competitor for IgG1-024 (antibody, V domains shown, also called TH1016-024; PC1016-024) VH: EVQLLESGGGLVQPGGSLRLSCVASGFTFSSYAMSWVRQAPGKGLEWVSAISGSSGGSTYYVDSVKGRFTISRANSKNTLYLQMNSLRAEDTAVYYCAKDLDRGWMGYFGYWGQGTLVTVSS VL: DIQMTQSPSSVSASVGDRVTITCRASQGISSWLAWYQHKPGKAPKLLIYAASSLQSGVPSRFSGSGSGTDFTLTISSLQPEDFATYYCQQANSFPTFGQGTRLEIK
Resp: 7.1
